# Measured target: SIRT1 (Homo sapiens)
# Sequence (Q96EB6 1-747): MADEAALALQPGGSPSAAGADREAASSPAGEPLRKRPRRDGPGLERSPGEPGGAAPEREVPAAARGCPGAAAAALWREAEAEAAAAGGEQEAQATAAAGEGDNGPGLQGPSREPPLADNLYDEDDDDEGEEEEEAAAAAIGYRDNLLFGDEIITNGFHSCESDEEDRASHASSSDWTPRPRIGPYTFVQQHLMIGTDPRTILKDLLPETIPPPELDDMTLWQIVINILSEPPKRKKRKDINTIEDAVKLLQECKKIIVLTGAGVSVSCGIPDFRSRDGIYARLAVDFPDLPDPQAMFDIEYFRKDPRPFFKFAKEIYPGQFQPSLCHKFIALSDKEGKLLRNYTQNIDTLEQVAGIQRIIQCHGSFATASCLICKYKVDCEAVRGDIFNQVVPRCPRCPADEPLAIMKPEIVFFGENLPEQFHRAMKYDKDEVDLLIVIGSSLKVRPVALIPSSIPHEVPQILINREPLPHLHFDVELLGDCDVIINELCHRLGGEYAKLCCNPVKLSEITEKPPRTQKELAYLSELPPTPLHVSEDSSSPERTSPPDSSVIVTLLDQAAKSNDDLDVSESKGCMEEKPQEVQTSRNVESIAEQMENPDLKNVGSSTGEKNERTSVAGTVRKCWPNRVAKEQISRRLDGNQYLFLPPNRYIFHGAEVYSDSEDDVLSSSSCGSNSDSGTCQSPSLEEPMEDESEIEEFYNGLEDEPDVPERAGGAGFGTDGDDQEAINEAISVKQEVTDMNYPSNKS
# Assay remarks: Mass spectrometry based SIRT1 deacetylation (activation) assay
# Assay type: biochemical
# Condition label: 0.5 μM peptide substrate, 120 μM βNAD+, 10 nM SIRT1, 25 min at 25° C.
# Source text: A mass spectrometry based assay was used to identify modulators of SIRT1 activity. The mass spectrometry based assay utilizes a peptide having 20 amino acid residues as follows: Ac-EE-K(biotin)-GQSTSSHSK(Ac)NleSTEG-K(5TMR)-EE-NH2 (SEQ ID NO: 1) wherein K(Ac) is an acetylated lysine residue and Nle is a norleucine. The peptide is labeled with the fluorophore 5TMR (excitation 540 nm/emission 580 nm) at the C-terminus. The sequence of the peptide substrate is based on p53 with several modifications. […]
Measured quantity: EC1.5

{"Smiles repr": "CCN(CCN(C)C)c1cc(C(=O)Nc2ccccc2C(=O)NC2CCN(C(=O)OC(C)(C)C)CC2)nc(-c2ccccc2)n1", "Experimental value": "B (EC1.5>1 and ≦10 uM)"}
{"Smiles repr": "CNC(=O)c1ccccc1NC(=O)c1cc(NCCN(C)C)nc(-c2ccccc2)n1", "Experimental value": "B (EC1.5>1 and ≦10 uM)"}
